target: UniProt P22460; experiment: Inhibition of human voltage-gated potassium channel subunit Kv1.5 expressed in Xenopus oocytes
Sequence (P22460 whole entry): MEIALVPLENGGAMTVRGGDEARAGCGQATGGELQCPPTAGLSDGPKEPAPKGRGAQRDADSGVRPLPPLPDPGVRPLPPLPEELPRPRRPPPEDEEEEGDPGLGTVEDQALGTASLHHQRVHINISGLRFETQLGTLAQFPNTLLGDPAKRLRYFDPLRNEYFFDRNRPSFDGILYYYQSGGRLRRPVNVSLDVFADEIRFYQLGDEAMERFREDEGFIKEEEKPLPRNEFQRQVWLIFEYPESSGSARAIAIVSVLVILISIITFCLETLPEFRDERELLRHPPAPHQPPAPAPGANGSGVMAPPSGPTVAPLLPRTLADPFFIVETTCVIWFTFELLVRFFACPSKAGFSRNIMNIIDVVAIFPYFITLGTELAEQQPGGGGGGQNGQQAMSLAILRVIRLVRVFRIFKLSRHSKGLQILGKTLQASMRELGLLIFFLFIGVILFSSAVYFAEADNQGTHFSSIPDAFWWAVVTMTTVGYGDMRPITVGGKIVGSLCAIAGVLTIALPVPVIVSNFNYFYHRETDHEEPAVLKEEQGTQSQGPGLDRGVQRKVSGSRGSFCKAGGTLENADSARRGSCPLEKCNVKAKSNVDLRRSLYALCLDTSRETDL
ASSAY_READOUT: IC50 (µM)
Provide only the numeric value, understood in µM.

Recorded results for 3 molecules are shown here.
IN: Which measured IC50 value corresponds to `CC(C)CCNC(=O)c1ccncc1-c1ccccc1CNC(=O)OCc1ccccc1` ?
OUT: 12

IN: Now consider `O=C(NC1CCCCC1)c1cccc2cccc(NS(=O)(=O)c3ccc(Cl)cc3)c12` and answer again.
OUT: 9.5

IN: Now consider `CC(C)CCNC(=O)c1cccnc1-c1ccccc1CNC(=O)OCc1ccccc1` and answer again.
OUT: 7.8

Now for the molecule whose IC50 we want.
IN: Which measured IC50 value corresponds to `Cc1cccc(CNC(=O)OCc2ccccc2)c1-c1c(C)cccc1C(=O)NCCc1ccccn1` ?
OUT: 1.7
